System: NCI-H522 lung
Assay: NCI tumour cell line growth inhibition, 48 h
Where a SMILES comes first, the peptide text is derived from it. The star is where a group is joined. Boc = CC(C)(C)OC(=O)*; OBn = c1ccc(CO*)cc1
parameter: log10 TGI (log10 of the value in µM)
log10 TGI, µM

Guide cases for log10 TGI, answers given:
compound: CC(=O)Oc1cc2c(n(C)c1=O)-c1ccccc1C2
log10 TGI: 1.49
--
compound: O=C1OC(CC(=O)c2ccc(Cl)c(Cl)c2)C(Cl)=C1Cl (stereo unspecified)
log10 TGI: 1.86
--
compound: O=S(=O)(NC1=NCCN1C(=S)SN1CCn2c1nsc2=S)c1ccc(Br)cc1
log10 TGI: 1.57
--
compound: CC(=O)[O-].CC(=O)[O-].[Pt+2].c1cscn1.c1cscn1
log10 TGI: 1.63
--
compound: COc1cc(/C=C(\C#N)c2nc3ccccc3o2)ccc1O
log10 TGI: 1.44
--
compound: COc1cc(Nc2nccc(Nc3ccc4c(C)[nH]nc4c3)n2)cc(OC)c1OC
log10 TGI: 0.86

### Prompt Please supply the value of reported log10 TGI for the item CC(C)C(NC(=O)C(Cc1ccccc1)NC(=O)OC(C)(C)C)C(=O)NCC(=O)OCc1ccccc1 (stereo not drawn) (Boc-Phe-Val-Gly-OBn; configuration not given here)
### Response 1.30
